- TARGET_UNDER_TEST: T1, Recombinant MBP-mutCALR Type 1 fusion protein (human)
- T1 construct: custom made at Cepter; also called recombinant mutCALR protein
- RUN_DESCRIPTION: SPR, IgG captured, 1:1 fit, Exp. 2
pKd: −log10 of the molar value.

{"BINDER": "anti-mutCALR antibody clone 62 (antibody, human IgG1, lambda, N297A, V domains shown, human IgG1 N297A variant of clone 6) VH: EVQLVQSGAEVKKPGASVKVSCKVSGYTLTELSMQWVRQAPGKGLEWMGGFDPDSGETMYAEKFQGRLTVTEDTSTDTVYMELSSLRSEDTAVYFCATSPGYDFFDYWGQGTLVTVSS VL: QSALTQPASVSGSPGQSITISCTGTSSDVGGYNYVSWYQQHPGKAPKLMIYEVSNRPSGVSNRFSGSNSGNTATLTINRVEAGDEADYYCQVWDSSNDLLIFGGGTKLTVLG", "pKd": 8.75}
{"BINDER": "anti-mutCALR antibody clone 173 (antibody, human IgG1, lambda, N297A, V domains shown) VH: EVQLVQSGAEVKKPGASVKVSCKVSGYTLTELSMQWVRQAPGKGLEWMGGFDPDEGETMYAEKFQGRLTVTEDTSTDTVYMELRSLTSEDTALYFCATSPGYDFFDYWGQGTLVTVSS VL: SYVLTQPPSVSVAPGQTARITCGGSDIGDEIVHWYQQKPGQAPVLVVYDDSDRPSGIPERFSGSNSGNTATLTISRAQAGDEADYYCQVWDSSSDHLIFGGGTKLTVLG", "pKd": 9.19}
{"BINDER": "anti-mutCALR antibody clone 126 (antibody, human IgG1, lambda, N297A, V domains shown, human IgG1 N297A variant of clone 15) VH: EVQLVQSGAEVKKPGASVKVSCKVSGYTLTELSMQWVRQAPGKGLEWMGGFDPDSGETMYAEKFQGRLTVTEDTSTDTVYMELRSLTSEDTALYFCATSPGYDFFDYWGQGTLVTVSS VL: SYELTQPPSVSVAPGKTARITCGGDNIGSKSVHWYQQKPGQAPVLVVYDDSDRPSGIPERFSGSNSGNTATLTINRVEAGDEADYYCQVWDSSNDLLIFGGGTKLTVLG", "pKd": 8.92}
